tested on: LC-2-ad; assay: relative viability (nuclei count vs DMSO), 5 days (fraction); higher = more cells survive; conditions: first compound 0.03162 µM
PROPERTY: relative viability

I have this compound here, Cc1cn(-c2cc(NC(=O)c3ccc(C)c(Nc4nccc(-c5cccnc5)n4)c3)cc(C(F)(F)F)c2)cn1 [Nilotinib] + Nc1nc2[nH]cc(CCc3ccc(C(=O)N[C@@H](CCC(=O)O)C(=O)O)cc3)c2c(=O)[nH]1 [Pemetrexed] (partner 0.2 µM) , and I need its recorded relative viability. 0.251

Would you kindly share the measured relative viability for Cc1cn(-c2cc(NC(=O)c3ccc(C)c(Nc4nccc(-c5cccnc5)n4)c3)cc(C(F)(F)F)c2)cn1 [Nilotinib] + CC(C)C[C@H](NC(=O)[C@H](Cc1ccccc1)NC(=O)c1cnccn1)B(O)O [Bortezomib] (partner 0.002 µM) ? 0.992

Item under review: Cc1cn(-c2cc(NC(=O)c3ccc(C)c(Nc4nccc(-c5cccnc5)n4)c3)cc(C(F)(F)F)c2)cn1 [Nilotinib] + Cc1cc(Nc2cc(N3CCN(C)CC3)nc(Sc3ccc(NC(=O)C4CC4)cc3)n2)n[nH]1 [Tozasertib] (partner 0.1 µM) . Reported relative viability? 0.384

---

tested on: NCI-H2023; experiment: relative viability (nuclei count vs DMSO), 5 days (fraction); higher = more cells survive; conditions: first compound 0.2 µM
For each of the compounds below, state its relative viability.
// keep it numeric: no unit symbol after the value

Looking for the measured relative viability of CCNC(=O)c1noc(-c2cc(C(C)C)c(O)cc2O)c1-c1ccc(CN2CCOCC2)cc1 [Luminespib] + CC(C)C[C@H](NC(=O)[C@H](Cc1ccccc1)NC(=O)c1cnccn1)B(O)O [Bortezomib] (partner 0.002 µM) , can you help? 0.0759

Given the entry CN1CCN(CCOc2cc(OC3CCOCC3)c3c(Nc4c(Cl)ccc5c4OCO5)ncnc3c2)CC1 [Saracatinib] + CS(=O)(=O)CCNCc1ccc(-c2ccc3ncnc(Nc4ccc(OCc5cccc(F)c5)c(Cl)c4)c3c2)o1 [Lapatinib] (partner 2 µM) , report its measured relative viability. 0.701

# input compound: Cc1csc(=NC2CCCCC2)n1/N=C/c1ccc(O)c(O)c1O [MIM1] + CC(=O)c1c(C)c2cnc(Nc3ccc(N4CCNCC4)cn3)nc2n(C2CCCC2)c1=O [Palbociclib] (partner 0.5 µM) ; wanted: its relative viability 0.393

Can you look up the measured relative viability of Cc1csc(=NC2CCCCC2)n1/N=C/c1ccc(O)c(O)c1O [MIM1] + N=C(N)NC(=N)NCCc1ccccc1 [Phenformin] (partner 250 µM) for me? 0.417

Item Cc1csc(=NC2CCCCC2)n1/N=C/c1ccc(O)c(O)c1O [MIM1] + C[C@@H](Oc1cc(-c2cnn(C3CCNCC3)c2)cnc1N)c1c(Cl)ccc(F)c1Cl [Crizotinib] (partner 1 µM) has what recorded relative viability? 0.551

---

Would you kindly list relative viability for each of these molecules?
system: HCC-78; test: relative viability (nuclei count vs DMSO), 5 days (fraction); higher = more cells survive; settings: first compound 0.003162 µM
Please reply with the number alone, leaving off any unit.

Query: relative viability; subject: Cc1cn(-c2cc(NC(=O)c3ccc(C)c(Nc4nccc(-c5cccnc5)n4)c3)cc(C(F)(F)F)c2)cn1 [Nilotinib] + CS(=O)(=O)N1CCN(Cc2cc3nc(-c4cccc5[nH]ncc45)nc(N4CCOCC4)c3s2)CC1 [Pictilisib] (partner 1 µM) 0.178

Which relative viability is listed for Cc1cn(-c2cc(NC(=O)c3ccc(C)c(Nc4nccc(-c5cccnc5)n4)c3)cc(C(F)(F)F)c2)cn1 [Nilotinib] + COc1cccc2cc(-c3nc([C@H]4CC[C@H](C(=O)O)CC4)n4ncnc(N)c34)[nH]c12 [OSI-027] (partner 0.5 µM) ? 0.368

Reported relative viability, molecule Cc1cn(-c2cc(NC(=O)c3ccc(C)c(Nc4nccc(-c5cccnc5)n4)c3)cc(C(F)(F)F)c2)cn1 [Nilotinib] + Cc1nc(Nc2ncc(C(=O)Nc3c(C)cccc3Cl)s2)cc(N2CCN(CCO)CC2)n1 [Dasatinib] (partner 0.075 µM) : ____ 0.357

Report relative viability for Cc1cn(-c2cc(NC(=O)c3ccc(C)c(Nc4nccc(-c5cccnc5)n4)c3)cc(C(F)(F)F)c2)cn1 [Nilotinib] + Cc1nc(NC(=O)N2CCC[C@H]2C(N)=O)sc1-c1ccnc(C(C)(C)C(F)(F)F)c1 [Alpelisib] (partner 2 µM) please. 0.381

Item Cc1cn(-c2cc(NC(=O)c3ccc(C)c(Nc4nccc(-c5cccnc5)n4)c3)cc(C(F)(F)F)c2)cn1 [Nilotinib] + O=C(CCCCCCC(=O)Nc1ccccc1)NO [Vorinostat] (partner 1 µM) has what recorded relative viability? 0.512

May I ask what relative viability has been recorded for Cc1cn(-c2cc(NC(=O)c3ccc(C)c(Nc4nccc(-c5cccnc5)n4)c3)cc(C(F)(F)F)c2)cn1 [Nilotinib] + COc1cc2c(Oc3ccc(NC(=O)C4(C(=O)Nc5ccc(F)cc5)CC4)cc3F)ccnc2cc1OCCCN1CCOCC1 [Foretinib] (partner 0.25 µM) ? 0.65

---

system: NCI-H23; assay: relative viability (nuclei count vs DMSO), 5 days (fraction); higher = more cells survive; conditions: first compound 8 µM
Note to self: use y only for relative viability readings below 0.7; a reading exactly at 0.7 still gets n.

Dear reviewer, please state whether Nc1cccc2c1CN(C1CCC(=O)NC1=O)C2=O (stereo not given) [Lenalidomide] + CCNC(=O)c1noc(-c2cc(C(C)C)c(O)cc2O)c1-c1ccc(CN2CCOCC2)cc1 [Luminespib] (partner 0.01 µM) has relative viability strictly beneath 0.7. y

is_below(relative viability, 0.7) for Nc1cccc2c1CN(C1CCC(=O)NC1=O)C2=O (stereo not given) [Lenalidomide] + CS(=O)(=O)CCNCc1ccc(-c2ccc3ncnc(Nc4ccc(OCc5cccc(F)c5)c(Cl)c4)c3c2)o1 [Lapatinib] (partner 2 µM) ? n

Item Nc1cccc2c1CN(C1CCC(=O)NC1=O)C2=O (stereo not given) [Lenalidomide] + CC(C)C[C@H](NC(=O)[C@H](Cc1ccccc1)NC(=O)c1cnccn1)B(O)O [Bortezomib] (partner 0.002 µM) : relative viability beneath 0.7, strictly? n

Does this compound meet the criterion relative viability < 0.7? Nc1cccc2c1CN(C1CCC(=O)NC1=O)C2=O (stereo not given) [Lenalidomide] + O=C(CCCCCCC(=O)Nc1ccccc1)NO [Vorinostat] (partner 1 µM) y

---

tested on: ChaGo-K-1; test: relative viability (nuclei count vs DMSO), 5 days (fraction); higher = more cells survive; conditions: first compound 0.003162 µM
PROPERTY: relative viability
Give the figure only, with no unit attached.

// lookup relative viability for Cc1cn(-c2cc(NC(=O)c3ccc(C)c(Nc4nccc(-c5cccnc5)n4)c3)cc(C(F)(F)F)c2)cn1 [Nilotinib] + CCNC(=O)c1noc(-c2cc(C(C)C)c(O)cc2O)c1-c1ccc(CN2CCOCC2)cc1 [Luminespib] (partner 0.01 µM) 0.48

What value of measured relative viability is listed for Cc1cn(-c2cc(NC(=O)c3ccc(C)c(Nc4nccc(-c5cccnc5)n4)c3)cc(C(F)(F)F)c2)cn1 [Nilotinib] + COc1cccc2cc(-c3nc([C@H]4CC[C@H](C(=O)O)CC4)n4ncnc(N)c34)[nH]c12 [OSI-027] (partner 0.5 µM) ? 0.643

# lookup: relative viability of Cc1cn(-c2cc(NC(=O)c3ccc(C)c(Nc4nccc(-c5cccnc5)n4)c3)cc(C(F)(F)F)c2)cn1 [Nilotinib] + O=C(CCCCCCC(=O)Nc1ccccc1)NO [Vorinostat] (partner 1 µM) 0.979

// relative viability lookup, key: Cc1cn(-c2cc(NC(=O)c3ccc(C)c(Nc4nccc(-c5cccnc5)n4)c3)cc(C(F)(F)F)c2)cn1 [Nilotinib] + CC1(C)CCC(c2ccc(Cl)cc2)=C(CN2CCN(c3ccc(C(=O)NS(=O)(=O)c4ccc(N[C@H](CCN5CCOCC5)CSc5ccccc5)c(S(=O)(=O)C(F)(F)F)c4)cc3)CC2)C1 [Navitoclax] (partner 0.5 µM) 0.924

Need relative viability of Cc1cn(-c2cc(NC(=O)c3ccc(C)c(Nc4nccc(-c5cccnc5)n4)c3)cc(C(F)(F)F)c2)cn1 [Nilotinib] + C[C@@H](Oc1cc(-c2cnn(C3CCNCC3)c2)cnc1N)c1c(Cl)ccc(F)c1Cl [Crizotinib] (partner 1 µM) , thanks. 1.08

Recorded relative viability of Cc1cn(-c2cc(NC(=O)c3ccc(C)c(Nc4nccc(-c5cccnc5)n4)c3)cc(C(F)(F)F)c2)cn1 [Nilotinib] + O=C(c1cc(Cc2n[nH]c(=O)c3ccccc23)ccc1F)N1CCN(C(=O)C2CC2)CC1 [Olaparib] (partner 8 µM) , please. 0.476

State the recorded relative viability for this entry: Cc1cn(-c2cc(NC(=O)c3ccc(C)c(Nc4nccc(-c5cccnc5)n4)c3)cc(C(F)(F)F)c2)cn1 [Nilotinib] + CC(=O)c1c(C)c2cnc(Nc3ccc(N4CCNCC4)cn3)nc2n(C2CCCC2)c1=O [Palbociclib] (partner 0.5 µM) 1.25
